Measured inhibition by item
System: Botulinum neurotoxin type F light chain protease (Clostridium botulinum)
Experiment: Botulinum neurotoxin type F light chain protease inhibition, multiplex microsphere flow cytometry, validation set (AID 588459)
Conditions: multiplex microsphere protease substrate cleavage assay, at 10 µM, active compounds read high
Where a SMILES comes first, the peptide text is derived from it. The star is where a group is joined. Boc = CC(C)(C)OC(=O)*

MOLECULE: COc1ccc(S(=O)(=O)NCc2ccco2)c2ccccc12
inhibition [%]: 4.7

MOLECULE: CCCCCCCCCC(=O)OCC(O)CO (centres undefined)
inhibition [%]: -3.5

MOLECULE: COc1cccc2cc(-c3ccccc3)c(=O)oc12
inhibition [%]: -1.9

MOLECULE: CCN(CC)CCNC(=O)c1cc(Cl)c(N)cc1OC
inhibition [%]: -1.3

MOLECULE: COc1ccc(CN2CCC(=O)NC2=O)cc1
inhibition [%]: -2.3

MOLECULE: O=C(Nc1ncc2c(n1)CC(c1ccco1)CC2=O)c1ccco1 (centres undefined)
inhibition [%]: -2.6

MOLECULE: O=C1NCCN2CCCC12 (centres undefined)
inhibition [%]: -0.2

MOLECULE: CC(/C=C1\SC(=O)N(CCCC(=O)O)C1=O)=C\c1ccccc1
inhibition [%]: 3.5

MOLECULE: COc1ccc(-c2c[n+](CC(=O)OC3CC(C)CCC3C(C)C)c3n2CCC3)cc1 (centres undefined)
inhibition [%]: 0.9

MOLECULE: CC(=O)N/C(=C/c1ccc2c(c1)OCO2)C(=O)NCCO
inhibition [%]: 3.7

MOLECULE: COc1ccc(C2=C(CN(C)C)C(c3ccccc3)c3ccccc3O2)cc1 (centres undefined)
inhibition [%]: -3

MOLECULE: COc1ccc(CC(=O)NCC2(c3ccc(OC)c(OC)c3)CCOCC2)cc1
inhibition [%]: 3.5

MOLECULE: Cc1cn([C@H]2C[C@H](N=[N+]=[N-])[C@@H](CO)O2)c(=O)[nH]c1=O
inhibition [%]: 2.4

MOLECULE: CCN(CC)C(=O)c1ccc(O)c(OC)c1
inhibition [%]: -2.8

MOLECULE: Cc1ccc2c(CC(=O)O)coc2c1
inhibition [%]: -2.9

MOLECULE: c1ccc(Nc2cccc3c(Nc4ccccc4)cccc23)cc1
inhibition [%]: -3.6

MOLECULE: CC(C)CC(NC(=O)C1CCCN1C(=O)OC(C)(C)C)C(=O)NCC(N)=O (stereo not drawn) (Boc-Pro-Leu-Gly-NH2; configuration not given here)
inhibition [%]: 3.5

MOLECULE: Clc1ccc(C2NCCc3[nH]cnc32)cc1 (centres undefined)
inhibition [%]: 1.1

MOLECULE: CCOC(=O)C(Cc1cc(C(C)=O)ccc1OC(C)C)C(=O)OCC
inhibition [%]: 0.4

MOLECULE: S=C(NCc1ccccc1)NCc1cccc(CNC(=S)NCc2ccccc2)c1
inhibition [%]: -0.9

MOLECULE: CN(Cc1c(C(=O)N(C)Cc2ccccc2)nc2ccccn12)CC1Cc2ccccc2O1 (centres undefined)
inhibition [%]: 4.4

MOLECULE: FC(F)(F)c1ccc(-c2noc(CN3CCCN(C4CCCCC4)CC3)n2)cc1
inhibition [%]: -2

MOLECULE: COc1ccc(-c2noc(CCc3ccccc3)n2)cc1
inhibition [%]: -8.8

MOLECULE: COC1CCN(C(=O)c2ccc(OC3CCN(Cc4ccccn4)CC3)cc2)CC1
inhibition [%]: 2.5
